- procedure-summary: NCI Yeast Anticancer Drug Screen. Data for the sgs1 mgt1 strain (AID 161);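 also: 0% = growth of cultures given vehicle only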
- test-conditions: S. cerevisiae sgs1 mgt1 strain, at 50.0 µM (retest, dose inferred, filed as 5.0), stronger effect = higher value
The panel holds about 79,000 compounds, 15% with a hit somewhere; the sample as a whole holds those more often.
growth inhibition listing for selected compounds.
Numbers only; they are read as %.

compound	growth inhibition (%)
NC(=S)N/N=C/c1ncccc1O	-30
COc1cc(-c2ccc(-[n+]3nc(-c4ccc([N+](=O)[O-])cc4)nn3-c3ccc([N+](=O)[O-])cc3)c(OC)c2)ccc1-[n+]1nc(-c2ccc([N+](=O)[O-])cc2)nn1-c1ccc([N+](=O)[O-])cc1	96
CCCCCCCCCCCCCCCCCC[S+](C)CC (centres undefined)	99

Look up growth inhibition: O=[N+]([O-])c1ccc(N2CCN(Cc3ccccc3)CC2)c2c1no[n+]2[O-]
92

Look up growth inhibition: C=[CH][Sn]([CH]=C)([O]c1cccc2cccnc12)[O]c1cccc2cccnc12
98

Look up growth inhibition: CN(C)c1ccc(C(C#N)(c2ccccc2)c2ccc(N(C)C)cc2)cc1
93
